System: 621-103 (TSC2-rescued)
Assay: relative viability vs DMSO; higher = less cytotoxic;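 note: immortalized renal angiomyolipoma cells stably carrying empty vector or TSC2, dosed in 384-well plates in DMEM, viability normalized to vehicle-treated wells within each plate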
Settings: 0.0001 µM; serum: 10% FBS; 72 h
Structures can show the parent of a compound that is named as a salt.
Reported relative viability values for a set of compounds
ENDPOINT: relative viability (%)

COMPOUND	ENDPOINT	QUANTITATIVE_READOUT
Clc1ccc(Nc2nnc(Cc3ccncc3)c3ccccc23)cc1 [Vatalanib]	relative viability	104
N#CC1(c2ccc(NC(=O)c3cccnc3NCc3ccncc3)cc2)CCCC1 [Apatinib]	relative viability	111
O=C(NOC[C@H](O)CO)c1ccc(F)c(F)c1Nc1ccc(I)cc1F	relative viability	96.2
CC[C@@]1(O)C(=O)OCc2c1cc1n(c2=O)Cc2cc3c(CN(C)C)c(O)ccc3nc2-1 [Topotecan Hydrochloride]	relative viability	106
Nc1nc(F)nc2c1ncn2[C@@H]1O[C@H](CO)[C@@H](O)[C@@H]1O [Fludarabine (Fludara)]	relative viability	108
COc1cccc(Nc2c(C(N)=O)cnc3c(C)cc(S(=O)(=O)c4cccc(C(=O)N(C)C)c4)cc23)c1	relative viability	104
O=C(c1ccc(/C=C/c2n[nH]c3ccccc23)cc1)N1CCNCC1 [KW 2449]	relative viability	102
Nc1nc(Cl)nc2c1ncn2[C@@H]1O[C@H](CO)[C@@H](O)[C@@H]1F [Clofarabine]	relative viability	107
O=C(O)[C@H]1O[C@@H](Oc2cc3oc(-c4ccccc4)cc(=O)c3c(O)c2O)[C@H](O)[C@@H](O)[C@@H]1O [Baicalin]	relative viability	113
O=c1ncn2nc(Sc3ccc(F)cc3F)ccc2c1-c1c(Cl)cccc1Cl [VX-745]	relative viability	99.1
O=c1cc(-c2ccc(O)c(O)c2)oc2cc(O)cc(O)c12 [Luteolin (Luteolol)]	relative viability	108
C=CC(=O)Nc1cccc(Sc2nc(Nc3ccc(N4CCN(C)CC4)cc3)ncc2Cl)c1 [WZ8040]	relative viability	100
COc1cc2c(cc1O)CC[C@@H]1[C@@H]2CC[C@]2(C)[C@@H](O)CC[C@@H]12 [2-Methoxyestradiol]	relative viability	107
C[C@]12CC[C@H]3[C@@H](CC[C@@]45O[C@@H]4C(O)=C(C#N)C[C@]35C)[C@@H]1CC[C@@H]2O [Trilostane]	relative viability	102
NC1=N[C@@]2(c3cc(NC(=O)c4ccc(F)cn4)ccc3F)COC[C@H]2CS1	relative viability	101
Cc1cc(Nc2cc(N3CCN(C)CC3)nc(Sc3ccc(NC(=O)C4CC4)cc3)n2)n[nH]1 [VX-680 (MK-0457)]	relative viability	99.1
COc1ccccc1N1CCN(CCN(C(=O)C2CCCCC2)c2ccccn2)CC1	relative viability	102
O=C1NC(=O)/C(=C/c2ccc(-c3ccc(F)cc3O)o2)S1	relative viability	92.9

* * *

Catalogue of relative viability readings, one per entry.
Tested on: 621-102 (TSC2-deficient)
Assay: relative viability vs DMSO; higher = less cytotoxic
Conditions: 0.01 µM; serum: 10% FBS; 72 h
Structures can show the parent of a compound that is named as a salt.

COMPOUND	relative viability, %
NC1(Cc2ccc(Cl)cc2)CCN(c2ncnc3[nH]ccc23)CC1	81.4
CN1[C@@H]2CC[C@H]1C[C@@H](OC(=O)C(CO)c1ccccc1)C2 (stereo partly specified) [Atropine sulfate monohydrate]	83.3
COCCOC(=O)C1=C(C)NC(C)=C(C(=O)OC/C=C/c2ccccc2)C1c1cccc([N+](=O)[O-])c1 (stereo unspecified)	103
CC[C@@]1(O)C(=O)OCc2c1cc1n(c2=O)Cc2cc3c(CN(C)C)c(O)ccc3nc2-1 [Topotecan Hydrochloride]	103
COC(=O)Nc1ccc(-c2nc(N3CCOCC3)c3cnn(C4CCN(Cc5cccnc5)CC4)c3n2)cc1	99.7
C[C@@H](Oc1cc(-c2cnn(C3CCNCC3)c2)cnc1N)c1c(Cl)ccc(F)c1Cl	104
O=C(O)[C@H]1O[C@@H](Oc2cc3oc(-c4ccccc4)cc(=O)c3c(O)c2O)[C@H](O)[C@@H](O)[C@@H]1O	106
CC(/C=C/C(=O)NO)=C\[C@@H](C)C(=O)c1ccc(N(C)C)cc1	118
C[C@@H]1CN(CC(=O)Nc2ccc3c(c2)Cc2cccc(-c4cc(=O)cc(N5CCOCC5)o4)c2S3)C[C@H](C)O1	96.1
CC(C)c1cnn2c(NCc3ccccc3)cc(NCCCCCCN)nc12	106
Nc1ccn([C@@H]2O[C@H](CO)[C@@H](O)C2(F)F)c(=O)n1 [Gemcitabine Hydrochloride]	52.7
C[N+]1(C)[C@@H]2C[C@@H](OC(=O)C(O)(c3cccs3)c3cccs3)C[C@H]1[C@@H]1O[C@@H]12 [Tiotropium Bromide hydrate]	116
CC[C@@H]1C(=O)N(C)c2cnc(Nc3ccc(C(=O)N[C@H]4CC[C@H](N5CCN(CC6CC6)CC5)CC4)cc3OC)nc2N1C(C)C	59.6
CCCNC(=O)Nc1ccc(Oc2ncnc3cc(OC)c(OC)cc23)cc1Cl	104
Nc1nc(F)nc2c1ncn2[C@@H]1O[C@H](CO)[C@@H](O)[C@@H]1O	106
CN(C)CC[C@H](CSc1ccccc1)Nc1ccc(S(=O)(=O)NC(=O)c2ccc(N3CCN(Cc4ccccc4-c4ccc(Cl)cc4)CC3)cc2)cc1[N+](=O)[O-]	113
Cn1cc(C2=C(c3ccc(Cl)cc3Cl)C(=O)NC2=O)c2ccccc21	98.2
CC(C)c1cc(C(C)C)c(CC(=O)NS(=O)(=O)Oc2c(C(C)C)cccc2C(C)C)c(C(C)C)c1	95.2
C[C@]12C=CC(=O)N[C@@H]1CC[C@@H]1[C@@H]2CC[C@]2(C)[C@@H](C(=O)Nc3cc(C(F)(F)F)ccc3C(F)(F)F)CC[C@@H]12 [Dutasteride (Avodart)]	115
O=C(NC[C@H]1CN(c2ccc(N3CCOCC3=O)cc2)C(=O)O1)c1ccc(Cl)s1	122
CCOc1ccn(-c2ccc(F)cc2)c(=O)c1C(=O)Nc1ccc(Oc2ccnc(N)c2Cl)c(F)c1	103
Cc1[nH]c(/C=C2\C(=O)Nc3ccccc32)c(C)c1CCC(=O)O	119
Nc1[nH]cnc2ncnc1-2	100
O=C(CN1C(=O)C2(CCCC2)NC[C@H]1c1cc(F)cc(F)c1)Nc1ccc2c(c1)C[C@@]1(C2)C(=O)Nc2ncccc21 [MK 3207 hydrochloride]	115
CCN[C@H]1C[C@H](C)S(=O)(=O)c2sc(S(N)(=O)=O)cc21 [Dorzolamide HCl]	108
Cc1[nH]nc2ccc(-c3cncc(OC[C@@H](N)Cc4ccccc4)c3)cc12	97.8
C[C@]12CC[C@@H]3c4ccc(O)cc4C[C@@H](CCCCCCCCC[S+]([O-])CCCC(F)(F)C(F)(F)F)[C@H]3[C@@H]1CC[C@@H]2O (stereo partly specified)	115
CN(CCOc1ccc(CC2SC(=O)NC2=O)cc1)c1ccccn1 (stereo unspecified)	99.4
NC1(c2ccc(-c3nc4ccn5c(=O)[nH]nc5c4cc3-c3ccccc3)cc2)CCC1	101
CN(C)CC/C=C1/c2ccccc2Sc2ccc(Cl)cc21	102
CNC[C@H](O)c1ccc(O)c(O)c1 [Epinephrine bitartrate]	105
